# assay.explanation: The ionization constant (pKa) for the compound measured potentiometrically
measured.metric: pKa
Just the number.

Examples with their reported pKa follow.
>  <compound>
c1ccc(CN2CCN(CCCc3c[nH]c4ccc(-n5cnnc5)cc34)CC2)cc1

>  <pKa>
8.2

$$$$
>  <compound>
CN(Cc1ccccc1)[C@@H]1CCN(CCCc2c[nH]c3ccc(-n4cnnc4)cc23)C[C@@H]1F

>  <pKa>
8

$$$$
>  <compound>
c1ccc(CC2CCN(CCCc3c[nH]c4ccc(-n5cnnc5)cc34)CC2)cc1

>  <pKa>
9.7

$$$$
>  <compound>
FC(Cc1c[nH]c2ccc(-n3cnnc3)cc12)CN1CCC(Cc2ccccc2)CC1 (stereo not given)

>  <pKa>
8.7

$$$$

For the next question, use this compound.
Returns the measured pKa for the input compound. Input: FC1(Cc2ccccc2)CCN(CCCc2c[nH]c3ccc(-n4cnnc4)cc23)CC1 8.8

---

Each item that follows carries a reported Efficacy.
# target.under.test: 5-hydroxytryptamine receptor 1D (Homo sapiens, UniProt P28221)
# Sequence (P28221 whole entry): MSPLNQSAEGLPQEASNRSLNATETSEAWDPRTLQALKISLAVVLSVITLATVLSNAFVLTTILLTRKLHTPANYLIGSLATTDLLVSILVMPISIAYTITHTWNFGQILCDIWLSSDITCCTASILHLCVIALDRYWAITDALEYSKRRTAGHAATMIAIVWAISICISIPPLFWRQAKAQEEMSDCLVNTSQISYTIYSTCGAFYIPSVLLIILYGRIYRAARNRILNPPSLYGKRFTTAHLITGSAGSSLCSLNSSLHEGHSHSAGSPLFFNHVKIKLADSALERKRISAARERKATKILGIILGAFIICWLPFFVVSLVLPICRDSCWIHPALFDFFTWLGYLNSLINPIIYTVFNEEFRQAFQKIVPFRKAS
# assay.explanation: Percent efficacy relative to 5-HT treatment of CHO cells expressing 5-HT 1d receptor
# Format: functional, cell-based
Give the value in % but do not write % after it.

Examples with their reported Efficacy follow.
>  <compound>
OC[C@H](NC1CCN(CCCc2c[nH]c3ccc(-n4cnnc4)cc23)CC1)c1ccc(F)cc1

>  <Efficacy (%)>
104

$$$$
>  <compound>
Fc1cccc(CCC2(F)CCN(CCCc3c[nH]c4ccc(-n5cnnc5)cc34)CC2)c1

>  <Efficacy (%)>
71

$$$$
>  <compound>
c1ccc(CC2CCN(CCCc3c[nH]c4ccc(-n5cnnc5)cc34)CC2)cc1

>  <Efficacy (%)>
62

$$$$
>  <compound>
CN(Cc1ccccc1)C1CCN(CC(F)Cc2c[nH]c3ccc(-n4cnnc4)cc23)CC1 (centres undefined)

>  <Efficacy (%)>
104

$$$$

Returns the measured Efficacy for the input compound. Input: FC(Cc1c[nH]c2ccc(-n3cnnc3)cc12)CN1CCC(Cc2ccccc2)CC1 (centres undefined) 61

Returns the measured Efficacy for the input compound. Input: FC1(Cc2ccccc2)CCN(CCCc2c[nH]c3ccc(-n4cnnc4)cc23)CC1 58

Returns the measured Efficacy for the input compound. Input: Fc1cccc(CCN2CCN(CC(F)Cc3c[nH]c4ccc(-n5cnnc5)cc34)CC2)c1 (centres undefined) 98

Returns the measured Efficacy for the input compound. Input: OC[C@H](NC1CCN(CC(F)Cc2c[nH]c3ccc(-n4cnnc4)cc23)CC1)c1ccc(F)cc1 (some centres undefined) 95

Returns the measured Efficacy for the input compound. Input: CN(Cc1ccccc1)C1CCN(CCCc2c[nH]c3ccc(-n4cnnc4)cc23)CC1 94

---

# target.under.test: UniProt P28221
# assay.explanation: Displacement of [3H]5-HT from human 5-hydroxytryptamine 1D receptor expressed in CHO cells
measured.metric: pIC50
Scale note: pIC50 = -log10(concentration in M).

>  <compound>
Fc1cccc(CCC2(F)CCN(CCCc3c[nH]c4ccc(-n5cnnc5)cc34)CC2)c1

>  <measured.metric>
pIC50

>  <readout.number>
9.12

$$$$
>  <compound>
CN(Cc1ccccc1)C1CCN(CC(F)Cc2c[nH]c3ccc(-n4cnnc4)cc23)CC1 (stereo not given)

>  <measured.metric>
pIC50

>  <readout.number>
8.27

$$$$

API: value(readout=pIC50, system=UniProt P28221) for record c1ccc(CC2CCN(CCCc3c[nH]c4ccc(-n5cnnc5)cc34)CC2)cc1 9.46

API: value(readout=pIC50, system=UniProt P28221) for record FC1(Cc2ccccc2)CCN(CCCc2c[nH]c3ccc(-n4cnnc4)cc23)CC1 9.00

API: value(readout=pIC50, system=UniProt P28221) for record FC(Cc1c[nH]c2ccc(-n3cnnc3)cc12)CN1CCC(Cc2ccccc2)CC1 (stereo not given) 9.02
